melting point values by entry

The examples below pair each entry with its known result.
- molecule: "COc1ccc2cc(CC(=O)NO)ccc2c1"
  observed_measurement: "177 to 180 °C"
- molecule: "NC(=O)CC[C@H]1CC[C@@H](c2ccc(F)cc2)N1S(=O)(=O)c1ccc(Cl)cc1 (racemic)"
  observed_measurement: "114 °C"
- molecule: "CCC1(CC)CC(c2ccc(OC)c(OC)c2)=NN(C2CCN(C(=O)c3ccccc3OC)CC2)C1=O"
  observed_measurement: "160 to 162 °C"
- molecule: "N#Cc1cccnc1N1CCN(CC(=O)Nc2cccc(Cl)c2)CC1"
  observed_measurement: "108 to 109 °C"
- molecule: "N#Cc1cccc2c1C(=O)C(O)=C(O)C2=O"
  observed_measurement: "305 to 312 °C"
- molecule: "COC(=O)N(C)c1ccc(OCc2nc3ccccc3s2)cc1"
  observed_measurement: "85 to 87 °C"
- molecule: "c1cncc(-c2cc(C3CCN(CCc4cccc5ccccc45)CC3)n[nH]2)c1"
  observed_measurement: "171 to 173 °C"
- molecule: "O=C1CC(ON(Cc2ccccc2)Cc2ccccc2)C(=O)N1c1ccccc1 (configuration not stated)"
  observed_measurement: "91 to 93 °C"
- molecule: "Clc1nccc2[nH]cnc12"
  observed_measurement: "100 to 102 °C"
- molecule: "CCOC(=O)C1=C(COCC(C)(O)Cc2ccccn2)NC(C)=C(C(=O)OC)C1c1cccc(Cl)c1Cl (configuration not stated)"
  observed_measurement: "163 to 164 °C"

Assign melting point to the following record: COCN(c1cccc2cc(-c3ncnn3C)n(COC)c12)S(=O)(=O)c1cccs1
110 to 111 °C

Assign melting point to the following record: COc1cc(-n2c(=O)cc(C(F)(F)F)[nH]c2=O)ccc1C#N
> 230 °C

Assign melting point to the following record: COC(=O)Cc1ccc(Sc2ccccc2C(=O)O)c([N+](=O)[O-])c1
135 to 136 °C

Assign melting point to the following record: CCOc1cc(N(Cc2cncnc2)c2ccc(C(=O)O)cc2)ccc1OC(F)F
165 to 166 °C

Assign melting point to the following record: Nc1ncnc2c1ncn2COCCN1C(=O)c2ccccc2C1=O
256 to 258 °C

---

melting point values by entry

The examples below pair each entry with its known result.
- compound: "CC1CCc2cccc3c2N1C(=O)C3=O (stereo not drawn)"
  melting point: "241 to 243 °C"
- compound: "CN(CCCS(=O)CCCC(F)(F)C(F)(F)F)CCOc1ccc(C2=C(c3ccccc3)CCCc3cc(O)ccc32)cc1 (stereo not drawn)"
  melting point: "63 to 65 °C"
- compound: "N=C(N)c1ccc2nc(-c3ccc(-c4nc5ccc(C(=N)N)cc5[nH]4)o3)[nH]c2c1"
  melting point: "> 300 °C"

Assign melting point to the following record: CCOC(=O)CCc1cn(-c2ccc(Cl)cn2)nc1C(C)C
70 to 71 °C

Assign melting point to the following record: COC(=O)c1cc(=O)c2oc3ccc(Cl)cc3c(=O)c2[nH]1
300 to 305 °C

Assign melting point to the following record: Cc1c(C=CC#N)cccc1[N+](=O)[O-]
136 °C

---

measured_quantity: melting point

The examples below pair each entry with its known result.
- molecule: "CC(C(=O)c1ccco1)N1CCN(c2ccc(CO)c(Cl)c2)CC1 (stereo not drawn)"
  melting point: "95 to 98 °C"
- molecule: "O/N=C1\\CCCc2c1c1ccccc1n2-c1ccc(O)cc1"
  melting point: "227 to 229 °C"
- molecule: "COc1cc2c(cc1Br)-c1c(-c3cccs3)c3c(n1CC2)C(=O)N(C(C)C)CCNC3"
  melting point: "201 to 203 °C"
- molecule: "Cc1ccc(-n2ccc(C=O)c2)cc1"
  melting point: "71 to 72 °C"
- molecule: "CC(=O)Nc1nc(C)c(CCCl)s1"
  melting point: "172 to 174 °C"
- molecule: "COc1ccc2c(NC(N)=O)c(C(=O)Nc3ccc(Cl)cc3Cl)oc2c1"
  melting point: "> 260 °C"

Assign melting point to the following record: CC1CC(=O)NN=C1c1ccc2c(c1)NC(=O)C(C)O2 (stereo not drawn)
271 to 272 °C

Assign melting point to the following record: Sc1nc2cnccc2[nH]1
> 320 °C

Assign melting point to the following record: CCOC(=O)CC[C@H](NC(=O)Oc1ccc(CCCCc2c(N)nc(N)nc2O)s1)C(=O)OCC
96 to 98 °C

Assign melting point to the following record: CCCCn1c(S)nnc1C(=O)O
108 to 110 °C

Assign melting point to the following record: CCOC(=O)c1cc(CC)sc1Nc1ccc(N)cc1N
152 to 155 °C

Assign melting point to the following record: CC(=O)NCCC1CCc2ccn3nccc3c21 (stereo not drawn)
100 to 101 °C

Assign melting point to the following record: N=C(N)c1ccc(N2CCN(c3ccc(SCC(=O)O)cc3)C2=O)cc1
> 275 °C

Assign melting point to the following record: CCNC(=O)NCCCN1C(=Nc2ccc3c(c2)OCO3)CSC1c1ccccc1OC (stereo not drawn)
134 to 136 °C

Assign melting point to the following record: O=C(NC1CC1)C(O)=CC(=O)c1ccc(Cc2ccc(F)cc2)o1
116 to 117 °C

Assign melting point to the following record: COc1c(C)c(C(=O)c2ccc3[nH]c(=O)n(N)c(=O)c3c2)n2ccccc12
220 °C

Assign melting point to the following record: CC(C)(C)c1cc(C(=O)Oc2ccc(C(=O)c3cc(C(C)(C)C)c(O)c(C(C)(C)C)c3)c(O)c2)cc(C(C)(C)C)c1O
120 to 122 °C

Assign melting point to the following record: COc1cc(Nc2nc3cccc(-c4ccc5ncccc5c4)c3o2)cc(OC)c1OC
187 to 190 °C

Assign melting point to the following record: Oc1ccc(N=C2SCCS2)cc1
204 to 208 °C
